Molecular target: T1, extracellular domain of human KLB expressed with C-terminal HA and hexahistidine tags (human, UniProt Q86Z14 1-996)
T1 construct: also called hKLB-HA-6His; hKLB-HA-6his
T1 sequence: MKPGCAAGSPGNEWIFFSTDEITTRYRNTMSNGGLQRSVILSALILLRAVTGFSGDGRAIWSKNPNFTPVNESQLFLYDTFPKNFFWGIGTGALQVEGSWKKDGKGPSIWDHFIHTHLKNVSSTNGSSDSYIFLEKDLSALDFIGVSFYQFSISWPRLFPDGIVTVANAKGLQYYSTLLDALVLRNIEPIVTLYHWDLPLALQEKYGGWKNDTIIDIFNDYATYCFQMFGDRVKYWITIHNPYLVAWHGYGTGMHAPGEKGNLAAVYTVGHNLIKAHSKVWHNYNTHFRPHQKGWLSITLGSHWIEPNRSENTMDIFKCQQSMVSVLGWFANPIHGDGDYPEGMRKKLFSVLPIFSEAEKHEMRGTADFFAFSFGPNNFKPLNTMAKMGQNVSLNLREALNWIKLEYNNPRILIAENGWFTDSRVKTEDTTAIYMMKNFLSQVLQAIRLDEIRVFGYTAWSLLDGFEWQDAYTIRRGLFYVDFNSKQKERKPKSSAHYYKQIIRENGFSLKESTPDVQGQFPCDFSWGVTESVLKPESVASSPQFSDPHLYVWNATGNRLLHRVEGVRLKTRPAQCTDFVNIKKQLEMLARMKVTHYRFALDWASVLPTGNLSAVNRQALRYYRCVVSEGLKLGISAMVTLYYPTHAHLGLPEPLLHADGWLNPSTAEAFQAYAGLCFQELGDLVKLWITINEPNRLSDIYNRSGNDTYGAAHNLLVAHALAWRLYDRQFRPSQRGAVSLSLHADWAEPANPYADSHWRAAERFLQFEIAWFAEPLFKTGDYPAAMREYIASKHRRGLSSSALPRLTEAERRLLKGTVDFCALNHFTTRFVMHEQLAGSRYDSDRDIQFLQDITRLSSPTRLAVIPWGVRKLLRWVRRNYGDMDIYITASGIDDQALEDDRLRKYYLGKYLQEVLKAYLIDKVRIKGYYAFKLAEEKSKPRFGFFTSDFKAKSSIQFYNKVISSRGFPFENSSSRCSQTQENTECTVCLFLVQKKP
Assay: SPR, mAb captured, 37 C
# kon values compiled below
A number alone suffices; assume M⁻¹ s⁻¹.

The cases that follow already have their kon on record.
binder	observable	units.label	recorded.value
H4H8837P (antibody, V domains shown, human IgG4 Fc (H4H prefix)) VH: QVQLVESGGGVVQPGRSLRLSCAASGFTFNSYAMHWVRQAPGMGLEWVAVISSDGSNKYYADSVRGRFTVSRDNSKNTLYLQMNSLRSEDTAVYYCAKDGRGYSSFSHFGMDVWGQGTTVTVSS VL: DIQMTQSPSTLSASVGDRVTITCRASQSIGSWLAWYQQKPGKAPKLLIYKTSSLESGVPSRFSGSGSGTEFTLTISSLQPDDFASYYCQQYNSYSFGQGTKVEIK	kon	M⁻¹ s⁻¹	320000
H4H8878P (antibody, V domains shown, human IgG4 Fc (H4H prefix)) VH: QVQLVESGGGVVQPGRSLRLSCAASGFTLNTYGMHWIRQTPGKGLEWVSLISYDETKEYYVDSVKGRFTISRDNSKNTLYLQMNSVRVEDTAVYYCAKPLTGSTDYYYGLDVWGQGTTVTVSS VL: DIQMTQSPSYVSASVGDRVIITCRASQDISSWLAWYQQKPGKAPKLLIYVTSSLESGVPSRFSGSGSGTDFTLTISGLQPEDFATYYCQQVKSFPPTFGPGTKVDIK	kon	M⁻¹ s⁻¹	790000
H4H8880P (antibody, V domains shown, human IgG4 Fc (H4H prefix)) VH: EVQLVESGGGVVQPGGSLRLSCAASGFTFSLYAMSWVRQAPGKGLEWVSAISGSAHGAYYADSVKGRFTISRDNSKNSLYLQMNSLRAEDTAIYYCAKDLVIAVAGTFDYWGQGTLVTVSS VL: DIQMTQSPSSLSASVGDRVTITCRASQIISTYLNWYQQKPGKAPKILIYTASSLKSGVPSRFSGSGSGTDFTLTISSLQPEDFATYYCQQTYSSPRFTFGPGTKVDIK	kon	M⁻¹ s⁻¹	556000

Summary for this binder, H2aM8093N (antibody, V domains shown, mouse IgG2 Fc (H2aM prefix)) VH: QVQLVQSGAEVKRPGSSVKVSCKASGDTFSTYAISWVRQAPGQGLEWMGGIIPVFGTTNYAQKFQDRVTITTDESTRTAYMELSSLRSEDTAVYYCAGIAGPDYWGQGTLVTVSS VL: DIQMTQSPSSLSASVGDRVTITCRASQGIRNYLAWFQQKPGKAPKSLIYLATSLQSGVPSKFSGSGSGTDFTLTISSLQPEDFATYYCQQYYSYPWTFGQGTKVEIK : kon is 812000
